Molecular target: opioid receptor (Mus musculus, UniProt P42866)
Construct: Five CF-1 male mice (Charles River, Portage, Mich.); from tissue; host or cells: living CF-1 male mice (in vivo test; endogenous receptor)
Sequence (P42866 whole entry): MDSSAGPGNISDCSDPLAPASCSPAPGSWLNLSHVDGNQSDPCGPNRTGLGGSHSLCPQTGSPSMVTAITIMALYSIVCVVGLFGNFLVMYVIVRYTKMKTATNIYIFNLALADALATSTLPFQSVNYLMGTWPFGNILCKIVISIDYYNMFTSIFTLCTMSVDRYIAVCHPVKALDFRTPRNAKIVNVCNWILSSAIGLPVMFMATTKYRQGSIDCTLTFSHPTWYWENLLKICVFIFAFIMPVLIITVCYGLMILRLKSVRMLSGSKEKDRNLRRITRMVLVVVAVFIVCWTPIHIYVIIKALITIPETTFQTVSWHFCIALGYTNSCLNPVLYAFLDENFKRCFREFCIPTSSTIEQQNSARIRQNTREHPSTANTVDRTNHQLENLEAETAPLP
Experiment: mouse writhing analgesis test: block of morphine-induced analgesia
Type: in vivo, CF-1 male mice
Design: unit not given here
Settings: dose of antagonist that reduced the inhibition of writhing produced by 1.25 mg/kg morphine sulfate to 50%; subcutaneous, 20 min before acetic acid
Where a name gives a salt, the structure may show the parent alone.
Please use 1 for AD50 under 6 and -1 for everything else, ties included.

compound: CC(=O)OC(C)OC(=O)CNC(=O)C(Cc1ccccc1)CN1CC[C@@](C)(c2cccc(O)c2)[C@@H](C)C1 (relative stereo)
label: -1
--
compound: C[C@H]1CN(CC(Cc2ccccc2)C(=O)NCC(=O)NCC(=O)O)CC[C@@]1(C)c1cccc(O)c1 (relative stereo) [Example 68, monohydrate]
label: -1
--
compound: COC1CCC(OC(=O)CNC(=O)C(Cc2ccccc2)CN2CC[C@@](C)(c3cccc(O)c3)[C@@H](C)C2)CC1 (relative stereo)
label: -1
--
compound: C[C@H]1CN(CCC(C(=O)NCCC(=O)O)C2CCCCC2)CC[C@@]1(C)c1cccc(O)c1 (relative stereo) [Example 26, monohydrate]
label: -1
--
compound: CCNC(=O)CNC(=O)C(CC1CCCCC1)CN1CC[C@@](C)(c2cccc(O)c2)[C@@H](C)C1 (relative stereo) [Example 31, monohydrochloride monohydrate]
label: 1
--
compound: C[C@H]1CN(CCC(C(=O)NCCCC(=O)O)C2CCCCC2)CC[C@@]1(C)c1cccc(O)c1 (relative stereo) [Example 28, monohydrate]
label: -1
--
compound: C[C@H]1CN(CCC(C(=O)O)c2ccccc2)CC[C@@]1(C)c1cccc(O)c1 (relative stereo) [Example 8B, hydrochloride]
label: 1
--
compound: C[C@H]1CN(CC(Cc2ccccc2)C(=O)NCCN(C)C)CC[C@@]1(C)c1cccc(O)c1 (relative stereo) [Example 69, dihydrochloride]
label: -1
--
compound: C[C@H]1CN(CC(CC2CCCCC2)C(=O)NCCC(N)=O)CC[C@@]1(C)c1cccc(O)c1 (stereo partly drawn) [Example 38, hydrochloride]
label: -1
--
compound: C[C@@H]1CN(CC(Cc2ccccc2)C(=O)NCC(=O)O)CC[C@]1(C)c1cccc(O)c1 (single isomer, unassigned) [Example 98E]
label: -1
--
compound: CCOC(=O)CN(C)C(=O)C(Cc1ccccc1)CN1CC[C@@](C)(c2cccc(O)c2)[C@@H](C)C1 (stereo partly drawn) [Example 65, monohydrochloride]
label: 1
--
compound: CCOC(=O)C(CCN1CC[C@@](C)(c2cccc(O)c2)[C@@H](C)C1)c1ccccc1 (relative stereo) [Example 8A, hydrochloride]
label: 1
--
compound: C[C@H]1CN(CC(Cc2ccccc2)C(=O)NCC(=O)O)CC[C@@]1(C)c1cccc(O)c1 (stereo partly drawn) [Example 44, monohydrate]
label: -1
--
compound: C[C@H]1CN(CC(Cc2ccccc2)C(=O)NCC(=O)OCC(=O)N(C)C)CC[C@@]1(C)c1cccc(O)c1 (relative stereo)
label: 1
--
compound: CCNC(=O)CNC(=O)C(CCN1CC[C@@](C)(c2cccc(O)c2)[C@@H](C)C1)c1ccccc1 (relative stereo) [Example 15, monohydrochloride monohydrate]
label: -1
--
compound: C[C@H]1CN(CC(Cc2ccccc2)C(=O)O)CC[C@@]1(C)c1cccc(O)c1 (relative stereo) [Example 4B, monohydrate]
label: -1
--
compound: CC(C)COC(=O)CNC(=O)C(Cc1ccccc1)CN1CC[C@@](C)(c2cccc(O)c2)[C@@H](C)C1 (stereo partly drawn) [Example 54, monohydrochloride]
label: -1
--
compound: C[C@H]1CN(CC(CC2CCCCC2)C(=O)NCC(N)=O)CC[C@@]1(C)c1cccc(O)c1 (relative stereo) [Example 33, monohydrochloride]
label: -1
--
compound: CNC(=O)CNC(=O)C(CC1CCCCC1)CN1CC[C@@](C)(c2cccc(O)c2)[C@@H](C)C1 (relative stereo) [Example 32, monohydrochloride]
label: -1
--
compound: C[C@H]1CN(CC(Cc2ccccc2)C(=O)NCCC(=O)OCc2ccccc2)CC[C@@]1(C)c1cccc(O)c1 (stereo partly drawn) [Example 56, hydrochloride]
label: -1
--
compound: CCNC(=O)CCCNC(=O)C(Cc1ccccc1)CN1CC[C@@](C)(c2cccc(O)c2)[C@@H](C)C1 (stereo partly drawn) [Example 64, monohydrochloride]
label: -1
--
compound: CNC(=O)C(Cc1ccccc1)CN1CC[C@@](C)(c2cccc(OC)c2)[C@@H](C)C1 (single isomer, unassigned)
label: 1
